Origin of measurements: PubChem BioAssay (NCI)

Items are presented alongside their recorded growth.
# Tested on: SNB-75 CNS
# EXPERIMENT: NCI-60 one-dose screen, 48 h (100 = growth as untreated, 0 = no growth, -100 = all killed)
# EXPERIMENTAL_PARAMETERS: 10 µM
Compounds without any hit were thinned out: in the full panel of roughly 83,000, 20% have a hit.

{"COMPOUND": "CC(=O)c1ccc(Nc2nc(SC(C)C)nc(-c3ccccc3)c2C#N)cc1", "growth, %": 42.3}
{"COMPOUND": "CN(CCF)c1ccc(/C=C/C(=O)c2ccc(N)cc2O)cc1", "growth, %": 102}
{"COMPOUND": "Brc1ccc(N/N=C/c2c[nH]c3ccccc23)nc1", "growth, %": 26.7}
{"COMPOUND": "CC1(c2ccccc2)NC(=O)N(CC(=O)Nc2ccc(C(=O)/C=C/c3ccc(Cl)cc3)cc2)C1=O (stereo not given)", "growth, %": 37.5}
{"COMPOUND": "Nc1nc(Nc2ccc(Cl)cc2)nn1Cc1cccc(Br)c1", "growth, %": 69.9}
{"COMPOUND": "O=c1cc(-c2ccccc2)oc2cc(OCCCCNCc3ccccc3)cc(O)c12", "growth, %": 53.4}
{"COMPOUND": "COc1ccc(C(=O)CSc2nnc(-c3c[nH]c4ccccc34)n2-c2ccccc2)cc1", "growth, %": 15}
{"COMPOUND": "Cc1noc2c(Cc3ccccc3)nn(CC(=O)N/N=C/c3ccc(Br)cc3)c(=O)c12", "growth, %": 35.3}
{"COMPOUND": "Cc1nc2c(cnn2-c2ccccc2)c(=O)n1-c1ccc(NC(=O)c2ccc(F)cc2)cc1", "growth, %": 64.5}
{"COMPOUND": "CC(=O)Nc1nc(-c2ccc(N3CCN(C)CC3)c(NS(=O)(=O)c3cccc4c(N(C)C)cccc34)c2)cs1", "growth, %": 56.5}
